IC50 by entry:
- TARGET ENTITY: PI3K delta (Homo sapiens, UniProt O00329)
- Construct: for the full-length p110-d subunit are generated and fused by overlapping PCR; p85(iSH2) fusion partner (see partner chain) (N); His tag (C); Tn5 (Trichoplusia ni) or TiniPro insect cells
- Sequence (O00329 with tags, fused parts or gaps limits assumed): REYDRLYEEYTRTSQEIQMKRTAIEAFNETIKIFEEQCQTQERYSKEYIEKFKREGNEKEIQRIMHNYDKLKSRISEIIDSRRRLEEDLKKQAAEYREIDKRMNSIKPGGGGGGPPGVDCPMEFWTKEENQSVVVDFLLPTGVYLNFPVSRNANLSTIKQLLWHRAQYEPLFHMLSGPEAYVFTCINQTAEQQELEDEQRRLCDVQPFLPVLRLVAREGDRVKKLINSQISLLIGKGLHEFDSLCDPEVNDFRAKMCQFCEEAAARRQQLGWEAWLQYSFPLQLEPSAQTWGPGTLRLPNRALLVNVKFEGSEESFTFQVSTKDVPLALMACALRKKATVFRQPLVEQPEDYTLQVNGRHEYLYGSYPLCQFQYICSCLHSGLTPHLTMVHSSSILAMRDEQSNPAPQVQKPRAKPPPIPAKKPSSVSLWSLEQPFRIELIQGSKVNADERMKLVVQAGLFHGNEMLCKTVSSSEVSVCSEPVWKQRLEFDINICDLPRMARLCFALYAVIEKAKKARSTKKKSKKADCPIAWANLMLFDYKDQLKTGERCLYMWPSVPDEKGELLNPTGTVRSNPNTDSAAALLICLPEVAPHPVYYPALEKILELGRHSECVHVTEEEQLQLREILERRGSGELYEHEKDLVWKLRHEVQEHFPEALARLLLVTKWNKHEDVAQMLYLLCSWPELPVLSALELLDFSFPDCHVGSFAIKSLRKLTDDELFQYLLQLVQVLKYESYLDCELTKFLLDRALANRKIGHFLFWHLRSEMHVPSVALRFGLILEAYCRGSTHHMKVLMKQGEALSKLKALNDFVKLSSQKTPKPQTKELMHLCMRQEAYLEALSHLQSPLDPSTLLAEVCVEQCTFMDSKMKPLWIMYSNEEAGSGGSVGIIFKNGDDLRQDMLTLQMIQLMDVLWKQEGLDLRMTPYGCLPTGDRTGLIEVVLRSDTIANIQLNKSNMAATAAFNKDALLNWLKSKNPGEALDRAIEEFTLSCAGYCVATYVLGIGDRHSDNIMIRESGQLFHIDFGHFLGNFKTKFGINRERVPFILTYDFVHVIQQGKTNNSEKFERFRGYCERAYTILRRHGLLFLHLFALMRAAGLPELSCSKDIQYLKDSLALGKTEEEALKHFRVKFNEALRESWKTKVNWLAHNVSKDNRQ
- EXPERIMENTAL DETAILS: PI3K delta kinase assay (Kinase-Glo luminescence)
- Experimental: In a more preferred assay, the kinase reaction is performed in a final volume of 10 μL per well of a low volume non binding CORNING, 384 well black plate (Cat. No. #3676). The final concentrations of ATP and phosphatidyl inositol (PI) in the assay are 1 μM and 10 μg/mL respectively. […] IC50 is determined by a four parameter curve fitting routine that comes along with “excel fit”. […] Alternatively, IC50 values are calculated using idbsXLfit model 204, which is a 4 parameter logistic model.
Just the number in nM, nothing appended.

Recorded results for 8 compounds are shown here.
> print(dat)
                         chemical.structure  readout  reported.result
1  Cc1nn(CC(=O)N2CCC2)cc1-n1c(=O)n(C)c2cnc3ccc(-c4cnc(N5CCCC5)nc4)cc3c21     IC50              794
2  COc1ncc(-c2ccc3ncc4c(c3c2)n(-c2cn(C)nc2C)c(=O)n4C)cc1NC(C)=O     IC50               51
3  Cc1nn(C)cc1-n1c(=O)n(C)c2cnc3ccc(-c4ccc(N(C)C)nc4)cc3c21     IC50               17
4  CCn1cc(-n2c(=O)n(C)c3cnc4ccc(-c5ccc(OC)nc5)cc4c32)c(C)n1     IC50               19
5  Cc1nn(C)cc1-n1c(=O)n(C)c2cnc3ccc(-c4cncc(C5(O)CCCC5)c4)cc3c21     IC50                6
6  Cc1nn(C)cc1-n1c(=O)n(C)c2cnc3ccc(-c4cncc(OCC5CC5)c4)cc3c21     IC50               17
7  CCNc1ncc(-c2ccc3ncc4c(c3c2)n(-c2cn(C)nc2C)c(=O)n4C)cc1COC     IC50                7
8  Cc1nn(CC(=O)N2CCC2)cc1-n1c(=O)n(C)c2cnc3ccc(-c4cncc(OC(C)C)c4)cc3c21     IC50               12

IC50 for Cc1nn(C)cc1-n1c(=O)n(C)c2cnc3ccc(-c4cncc(NC(C)C)c4)cc3c21 ?
12

I am curious: what IC50 value has been reported for CCn1cc(-n2c(=O)n(C)c3cnc4ccc(-c5cnc(NC)c(Cl)c5)cc4c32)c(C)n1 ?
30

# input compound: Cc1nn(C)cc1-n1c(=O)n(C)c2cnc3ccc(-c4cnn(CCO)c4)cc3c21 ; wanted: its IC50
147

Requested field: IC50. Item: CCn1cc(-n2c(=O)n(C)c3cnc4ccc(-c5ccc(OC)c(OC)c5)cc4c32)c(C)n1
11

Field request: IC50 | item: Cc1nn(C(C)C)cc1-n1c(=O)n(C)c2cnc3ccc(-c4cncc(C(C)(C)O)c4)cc3c21
14

Which measured IC50 value corresponds to Cc1nn(C)cc1-n1c(=O)n(C)c2cnc3ccc(-c4cccnc4)cc3c21 ?
112

Item Cc1nn(C)c(C)c1-n1c(=O)n(C)c2cnc3ccc(-c4cnc(Cl)c(N)c4)cc3c21 has what recorded IC50?
7

Could you share which IC50 value was measured for Cc1nn(C)cc1-n1c(=O)n(C)c2cnc3ccc(-c4cnc(N)c(C(=O)NC(C)C)c4)cc3c21 ?
26

Return reported IC50; argument: CCNc1cc(-c2ccc3ncc4c(c3c2)n(-c2cn(CC)nc2C)c(=O)n4C)cnc1C
6
